For each of the molecules below, state its IC50 at 8 min.
TEST SYSTEM: P450 3A4 (Homo sapiens, UniProt P08684, form not given)
Sequence (P08684 13-503): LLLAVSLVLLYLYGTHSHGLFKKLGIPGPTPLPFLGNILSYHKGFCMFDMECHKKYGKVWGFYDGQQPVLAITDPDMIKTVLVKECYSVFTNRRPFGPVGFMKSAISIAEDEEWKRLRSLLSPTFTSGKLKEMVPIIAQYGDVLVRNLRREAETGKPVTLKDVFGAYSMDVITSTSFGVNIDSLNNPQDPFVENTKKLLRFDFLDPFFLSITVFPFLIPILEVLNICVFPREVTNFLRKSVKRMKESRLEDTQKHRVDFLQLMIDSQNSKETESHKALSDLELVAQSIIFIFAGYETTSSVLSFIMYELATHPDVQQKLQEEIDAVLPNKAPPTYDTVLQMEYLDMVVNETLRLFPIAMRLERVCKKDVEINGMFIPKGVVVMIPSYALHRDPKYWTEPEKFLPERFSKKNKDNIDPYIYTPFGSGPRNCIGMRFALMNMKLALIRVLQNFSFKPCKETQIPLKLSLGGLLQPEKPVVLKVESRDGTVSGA
Sequence (P00388 2-678 partner): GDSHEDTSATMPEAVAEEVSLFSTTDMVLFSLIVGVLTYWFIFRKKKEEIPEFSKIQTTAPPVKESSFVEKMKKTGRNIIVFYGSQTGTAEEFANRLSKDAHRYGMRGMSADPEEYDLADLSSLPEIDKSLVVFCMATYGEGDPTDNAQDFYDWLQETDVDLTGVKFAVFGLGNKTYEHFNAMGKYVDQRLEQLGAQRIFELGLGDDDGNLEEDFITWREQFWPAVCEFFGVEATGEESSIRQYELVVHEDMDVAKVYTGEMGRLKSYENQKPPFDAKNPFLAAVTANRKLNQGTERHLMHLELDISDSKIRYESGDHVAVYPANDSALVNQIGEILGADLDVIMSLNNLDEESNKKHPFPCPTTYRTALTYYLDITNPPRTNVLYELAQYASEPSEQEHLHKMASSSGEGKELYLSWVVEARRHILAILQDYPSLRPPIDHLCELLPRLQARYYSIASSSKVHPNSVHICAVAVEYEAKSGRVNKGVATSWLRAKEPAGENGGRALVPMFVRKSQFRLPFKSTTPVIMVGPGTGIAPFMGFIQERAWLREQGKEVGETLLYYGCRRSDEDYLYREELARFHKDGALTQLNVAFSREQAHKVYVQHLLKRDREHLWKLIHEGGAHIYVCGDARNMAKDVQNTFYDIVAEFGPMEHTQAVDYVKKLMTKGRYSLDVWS
Sequence (P00167 2-134 partner): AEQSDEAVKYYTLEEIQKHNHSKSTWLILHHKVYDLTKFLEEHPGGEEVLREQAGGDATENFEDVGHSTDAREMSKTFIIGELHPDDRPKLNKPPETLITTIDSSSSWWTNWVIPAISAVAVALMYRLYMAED
TEST NAME: in vitro
RECORDED CONDITIONS: P450 3A4 reconstituted with cholate/phospholipid mixture, probe 7-OBz quinoline (7-benzoyl quinoline) O-debenzylation, 20 μM
Field: value (include unit after the number)

Inquiry: So what's the measured IC50 at 8 min for this one? CCC(C)n1ncn(-c2ccc(N3CCN(c4ccc(OCC5COC(Cn6cncn6)(c6ccc(Cl)cc6Cl)O5)cc4)CC3)cc2)c1=O (centres unmarked) [Itraconazole]
Reply text: 2020 nM

Inquiry: So what's the measured IC50 at 8 min for this one? Clc1ccccc1C(c1ccccc1)(c1ccccc1)n1ccnc1 [Clotrimazole]
Reply text: 110 nM
